Molecular target: F508delCFTR (Homo sapiens, UniProt P13569, DEL508-508)
Construct: expressed in transfected cells; host or cells: CFBE41o- human lung-derived epithelial cells (CFBE41o-F508delCFTR-HRP), doxycycline-inducible
Sequence (P13569 with tags, fused parts or gaps DEL508-508): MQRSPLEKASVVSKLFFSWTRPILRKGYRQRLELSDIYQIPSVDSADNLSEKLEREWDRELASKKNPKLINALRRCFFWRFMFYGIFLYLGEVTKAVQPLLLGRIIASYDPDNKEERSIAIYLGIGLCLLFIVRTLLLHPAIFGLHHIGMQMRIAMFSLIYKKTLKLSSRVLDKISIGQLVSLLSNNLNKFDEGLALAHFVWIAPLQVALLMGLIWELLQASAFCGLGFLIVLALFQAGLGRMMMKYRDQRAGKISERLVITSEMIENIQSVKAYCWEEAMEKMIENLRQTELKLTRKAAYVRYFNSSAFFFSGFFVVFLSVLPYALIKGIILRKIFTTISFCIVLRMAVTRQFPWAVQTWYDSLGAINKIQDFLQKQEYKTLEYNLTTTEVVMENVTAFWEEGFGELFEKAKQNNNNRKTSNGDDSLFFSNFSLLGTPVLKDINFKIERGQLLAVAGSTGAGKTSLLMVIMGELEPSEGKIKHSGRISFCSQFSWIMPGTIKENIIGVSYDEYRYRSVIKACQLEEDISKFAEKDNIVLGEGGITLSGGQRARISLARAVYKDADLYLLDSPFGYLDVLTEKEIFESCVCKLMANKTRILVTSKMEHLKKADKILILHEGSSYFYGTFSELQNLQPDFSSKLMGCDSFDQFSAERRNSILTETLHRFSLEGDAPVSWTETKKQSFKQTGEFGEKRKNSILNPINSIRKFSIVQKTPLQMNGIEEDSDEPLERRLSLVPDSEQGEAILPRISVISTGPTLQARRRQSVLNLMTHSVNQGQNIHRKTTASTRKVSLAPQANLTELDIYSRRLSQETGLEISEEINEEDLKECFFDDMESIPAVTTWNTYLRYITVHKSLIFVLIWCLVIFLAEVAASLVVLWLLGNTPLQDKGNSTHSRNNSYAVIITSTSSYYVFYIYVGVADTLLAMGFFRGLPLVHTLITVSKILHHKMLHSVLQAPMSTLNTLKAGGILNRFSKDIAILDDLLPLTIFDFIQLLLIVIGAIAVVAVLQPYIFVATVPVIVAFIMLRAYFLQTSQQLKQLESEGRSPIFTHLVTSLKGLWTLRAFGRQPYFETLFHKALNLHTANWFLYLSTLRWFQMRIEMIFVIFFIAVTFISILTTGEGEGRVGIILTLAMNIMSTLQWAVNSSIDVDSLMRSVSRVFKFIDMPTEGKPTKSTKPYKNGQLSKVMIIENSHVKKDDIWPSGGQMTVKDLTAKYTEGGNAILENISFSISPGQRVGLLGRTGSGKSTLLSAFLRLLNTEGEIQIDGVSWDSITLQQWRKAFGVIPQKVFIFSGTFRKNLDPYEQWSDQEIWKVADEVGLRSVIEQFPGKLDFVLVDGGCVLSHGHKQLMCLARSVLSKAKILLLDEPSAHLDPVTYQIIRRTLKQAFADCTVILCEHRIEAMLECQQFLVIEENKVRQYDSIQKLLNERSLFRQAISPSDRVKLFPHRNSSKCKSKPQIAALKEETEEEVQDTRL
Assay: Cell Surface Expression-Horse Radish Peroxidase (CSE-HRP) assay, test compound with co-corrector
Format: cell-based
Settings: with 2 μM co-corrector
This listing pairs compounds with measured EC50.

Task: What is its EC50 for F508delCFTR (Homo sapiens, UniProt P13569, DEL508-508)? Entry: COc1cccc2c1CCC2C(=O)NS(=O)(=O)c1c(C)noc1C (stereo not drawn)
Result: ≥ 10 µM

Task: What is its EC50 for F508delCFTR (Homo sapiens, UniProt P13569, DEL508-508)? Entry: COc1cccc2c1CCC2C(=O)NS(=O)(=O)c1ccc(C)cc1 (stereo not drawn)
Result: 3 to 10 µM

Task: What is its EC50 for F508delCFTR (Homo sapiens, UniProt P13569, DEL508-508)? Entry: CCC1(C(=O)NS(=O)(=O)c2ccc(C3CCC3)c3ccccc23)CCc2c(C3CCC3)cccc21 (stereo not drawn)
Result: 3 to 10 µM

Task: What is its EC50 for F508delCFTR (Homo sapiens, UniProt P13569, DEL508-508)? Entry: COc1cccc2c1[C@H](C(=O)NS(=O)(=O)c1cccc3ncccc13)CC2(C)C
Result: < 3 µM

Task: What is its EC50 for F508delCFTR (Homo sapiens, UniProt P13569, DEL508-508)? Entry: CCC1(C(=O)NS(=O)(=O)c2cccc3c2ccn3C)CCc2c(Cl)cccc21 (stereo not drawn)
Result: < 3 µM

Task: What is its EC50 for F508delCFTR (Homo sapiens, UniProt P13569, DEL508-508)? Entry: CCC1(C(=O)NS(=O)(=O)c2cccc3cnn(C)c23)CCc2c(Cl)cccc21 (stereo not drawn)
Result: < 3 µM
